meta.source: patent US20240000872A1

system: Acinetobacter baumannii strains; test: Antibiotic susceptibility test (CLSI disk diffusion test method, read per CLSI 2016); format: cell-based; conditions: host strain YMC14/01/R671; further: key: ‘S’ means susceptible; ‘I’ means intermediate; ‘R’ means resistant
QUANTITY NAME: antibiotic susceptibility class

| CHEMICAL STRUCTURE | antibiotic susceptibility class |
| --- | --- |
| CC(C)(O/N=C(\C(=O)N[C@@H]1C(=O)N2C(C(=O)[O-])=C(C[n+]3ccccc3)CS[C@H]12)c1csc(N)n1)C(=O)O | R |
| CN(C)c1cc(NC(=O)CNC(C)(C)C)c(O)c2c1C[C@H]1C[C@H]3[C@H](N(C)C)C(O)=C(C(N)=O)C(=O)[C@@]3(O)C(O)=C1C2=O | S |
| CN(C)c1ccc(O)c2c1C[C@H]1C[C@H]3[C@H](N(C)C)C(O)=C(C(N)=O)C(=O)[C@@]3(O)C(O)=C1C2=O | I |
| C[C@@H](O)[C@H]1C(=O)N2C(C(=O)O)=C(SCCN=CN)C[C@H]12 | R |
| C[C@@H](O)[C@H]1C(=O)N2C(C(=O)O)=C(S[C@@H]3CN[C@H](C(=O)N(C)C)C3)[C@H](C)[C@H]12 | R |

Next item in the queue.
Log: Acinetobacter baumannii strains, compound `C[C@H]1COc2c(N3CCN(C)CC3)c(F)cc3c(=O)c(C(=O)O)cn1c23` , antibiotic susceptibility class = R
